Record form. Attribute: RP-LC retention time. Fill in for each entry.
assay: gradient 5% acetonitrile 3 min, to 50% in 2 min, to 85% in 15 min, held 3 min, 100 µL/min; conditions: column: Zorbax Extend-C18 2.1 x 50 mm; eluents: water / acetonitrile, 0.1% formic acid
The response must be a number in s with no trailing unit.

Input Cc1ccc(NS(=O)(=O)c2cc(-c3cc(C(F)(F)F)on3)cs2)c(Br)c1 , output reported RP-LC retention time.
1160

Input Cc1cc(C)cc(N2CCC(NC(=O)Nc3ccccc3C)C2=O)c1 (stereo not given) , output reported RP-LC retention time.
890

Input O=C(C1=NN(c2ccc(F)cc2)c2ccc(F)cc2S1(=O)=O)N1CCOCC1 , output reported RP-LC retention time.
829

Input Cc1cc(NC(=O)c2nc3ccccc3s2)n(C(C)C)n1 , output reported RP-LC retention time.
806

Input CCN(C(=O)Cn1nc(C(=O)N2CCCCC2)c2ccccc21)c1ccccc1 , output reported RP-LC retention time.
944

Input CCc1cccc(NC(=O)Cc2csc3nc(-c4ccc(C)c(C)c4)cn23)c1 , output reported RP-LC retention time.
962

Input COc1ccccc1-c1nc(C2CC(=O)N(c3ccc(F)cc3)C2)no1 (stereo not given) , output reported RP-LC retention time.
926

Input COc1nccnc1N1CCC(N(C)C(=O)c2ccc3c(c2)OCO3)C1 (stereo not given) , output reported RP-LC retention time.
694

Input CCC(CN(C)Cc1ccccc1)NS(=O)(=O)c1ccc2[nH]c(=O)ccc2c1 (stereo not given) , output reported RP-LC retention time.
600

Input O=C(NCc1ccc(F)c(Cl)c1)c1ccc2ncnc(N3CCCC3)c2c1 , output reported RP-LC retention time.
670
